TEST_SYSTEM: MDM2-p53 interaction (Homo sapiens (Human), UniProt Q00987)
Sequence (Q00987 whole entry): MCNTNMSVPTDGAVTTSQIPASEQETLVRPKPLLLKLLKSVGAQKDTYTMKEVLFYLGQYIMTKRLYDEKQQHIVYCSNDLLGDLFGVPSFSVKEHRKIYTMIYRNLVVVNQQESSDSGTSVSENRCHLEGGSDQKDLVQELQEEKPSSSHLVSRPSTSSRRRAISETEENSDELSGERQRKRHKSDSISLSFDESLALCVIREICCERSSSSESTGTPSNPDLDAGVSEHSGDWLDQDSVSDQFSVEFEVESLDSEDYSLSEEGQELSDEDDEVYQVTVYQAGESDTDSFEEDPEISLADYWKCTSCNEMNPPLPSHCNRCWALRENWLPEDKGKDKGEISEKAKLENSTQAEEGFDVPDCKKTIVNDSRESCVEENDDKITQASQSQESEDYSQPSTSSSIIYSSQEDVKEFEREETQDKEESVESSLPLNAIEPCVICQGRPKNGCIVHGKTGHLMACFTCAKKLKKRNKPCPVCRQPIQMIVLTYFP
CONDITION_DETAILS: read-out: MDM2 % inhibition @0.0010
RECORDED_METRIC: inhibition at 0.001 µM (%)

CCC(O)(c1cc(F)c2c(c1)C(=O)N(Cc1ncc(Cl)cn1)[C@@]2(OCC1(CO)CC1)c1ccc(Cl)cc1)c1cn(C)cn1 (single isomer, unassigned) : 86
CCC(O)(c1cc(F)c2c(c1)C(=O)N(Cc1ncc(Cl)cn1)[C@@]2(O[C@H]1CCOC1)c1ccc(Cl)cc1)C1CCNCC1 (single isomer, unassigned) : 84

1. CCC(O)(c1cc(F)c2c(c1)C(=O)N(Cc1ncc(C#N)cn1)[C@@]2(O[C@H]1CCOC1)c1ccc(Cl)cc1)C1(F)CCNCC1 (single isomer, unassigned)
2. CCC(O)(c1cc(F)c2c(c1)C(=O)N(Cc1ccc(C#N)cn1)[C@@]2(O[C@H]1CCOC1)c1ccc(Cl)cc1)c1ccn(C)n1 (single isomer, unassigned)
-- ask Lab note: check whether 1 or 2 has the lower measured inhibition at 0.001 µM. Use the label to indicate which entry you chose.
-- reply 2
(2: 56%, 1: 82%)

* * *

Test system: SN40R2 cells
PROCEDURE_SUMMARY: Protocol B: SN40R2 CellTiter-Glo luminescent cell viability assay
CONDITION_DETAILS: 72 h, read-out: SN40R2 IC50 (μM) (Protocol B)
RECORDED_METRIC: IC50 (µM)
Give the value, in units of µM, as a plain number.

-- ask // query IC50 value for entry CN1CCN(CC(C)(O)c2cc(F)c3c(c2)C(=O)N(Cc2ccc(Cl)cc2S(C)(=O)=O)[C@@]3(OC2CCOC2)c2ccc(Cl)cc2)CC1 (single isomer, unassigned) [Example 67]
-- reply 9.4

* * *

Here's a batch of compounds along with measured MDM2 % at stated concentration for MDM2-p53 interaction (Homo sapiens (Human), UniProt Q00987).
RECORDED_METRIC: MDM2 % at stated concentration (%@0.0010)

Cn1cc(C(C)(O)c2cc(F)c3c(c2)C(=O)N(Cc2ccc(Cl)c[n+]2[O-])[C@@]3(OCC2(CO)CC2)c2ccc(Cl)cc2)cn1 (single isomer, unassigned) : 62
CC(O)(c1cc(F)c2c(c1)C(=O)N(Cc1ccc(Cl)cn1)[C@@]2(OCC1(C#N)CC1)c1ccc(Cl)cc1)C1CCN(CCO)CC1 (single isomer, unassigned) : 68
CO[C@]1(c2ccc(Cl)cc2)c2c(F)cc(C(C)(O)C3CCN(C(=O)CO)CC3)cc2C(=O)N1Cc1ccc(Cl)cn1 (single isomer, unassigned) : 62
CC(=O)N1CCC(C(C)(O)c2cc(F)c3c(c2)C(=O)N(Cc2ccc(Cl)cn2)[C@@]3(OCC2(C#N)CC2)c2ccc(Cl)cc2)CC1 (single isomer, unassigned) : 75
CCC(O)(c1cc(F)c2c(c1)C(=O)N(Cc1ccc(C#N)cn1)[C@@]2(O[C@H]1CCOC1)c1ccc(Cl)cc1)c1cnn(C)c1 (single isomer, unassigned) : 74

* * *

System: SN40R2 cells
PROCEDURE_SUMMARY: Protocol B: SN40R2 CellTiter-Glo luminescent cell viability assay
CONDITION_DETAILS: read-out: SN40R2 % inhibition at 10, Protocol B, SN40R2, at 10 μM
RECORDED_METRIC: inhibition at 10 µM (%)
Field format: number, assumed %, no unit text.

Below, 4 compounds whose answers are already recorded.
CC[C@@](O)(c1cc(F)c2c(c1)C(=O)N(Cc1ncc(C#N)cn1)[C@@]2(O[C@H]1CCOC1)c1ccc(Cl)cc1)C1CCN(C)CC1 : 6
CCC(O)(c1cc(F)c2c(c1)C(=O)N(Cc1ccc(C#N)cn1)[C@@]2(OC)c1ccc(Cl)cc1)[C@H]1CC[C@H](O)CC1 (single isomer, unassigned) : 11
CCC(O)(c1cc(F)c2c(c1)C(=O)N(Cc1ncc(Cl)cn1)[C@@]2(OC)c1ccc(Cl)cc1)C1(F)CCN(C2COC2)CC1 (single isomer, unassigned) : 7
CCC(O)(c1cc(F)c2c(c1)C(=O)N(Cc1ncc(Cl)cn1)[C@@]2(OCC1(CO)CC1)c1ccc(Cl)cc1)c1cn(C)cn1 (single isomer, unassigned) : 4

Now look at this one.
-- ask Please give the measured inhibition at 10 µM for this compound: CCC(O)(c1cc(F)c2c(c1)C(=O)N(Cc1ncc(C#N)cn1)[C@@]2(O[C@H]1CCOC1)c1ccc(Cl)cc1)c1ccn(C)n1 (single isomer, unassigned)
-- reply -9
